Source: patent US20260184687A1

- assay_system: FL hMALT1 enzyme (Homo sapiens);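 further: Cell-free protease assay: enzyme preincubated with compound 30 min at room temperature, then cleavage of fluorogenic Ac-LVSR-AMC substrate (100 µM) tracked by fluorescence (ex 360/em 460 nm)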
- Sequence (Q9UDY8 whole entry): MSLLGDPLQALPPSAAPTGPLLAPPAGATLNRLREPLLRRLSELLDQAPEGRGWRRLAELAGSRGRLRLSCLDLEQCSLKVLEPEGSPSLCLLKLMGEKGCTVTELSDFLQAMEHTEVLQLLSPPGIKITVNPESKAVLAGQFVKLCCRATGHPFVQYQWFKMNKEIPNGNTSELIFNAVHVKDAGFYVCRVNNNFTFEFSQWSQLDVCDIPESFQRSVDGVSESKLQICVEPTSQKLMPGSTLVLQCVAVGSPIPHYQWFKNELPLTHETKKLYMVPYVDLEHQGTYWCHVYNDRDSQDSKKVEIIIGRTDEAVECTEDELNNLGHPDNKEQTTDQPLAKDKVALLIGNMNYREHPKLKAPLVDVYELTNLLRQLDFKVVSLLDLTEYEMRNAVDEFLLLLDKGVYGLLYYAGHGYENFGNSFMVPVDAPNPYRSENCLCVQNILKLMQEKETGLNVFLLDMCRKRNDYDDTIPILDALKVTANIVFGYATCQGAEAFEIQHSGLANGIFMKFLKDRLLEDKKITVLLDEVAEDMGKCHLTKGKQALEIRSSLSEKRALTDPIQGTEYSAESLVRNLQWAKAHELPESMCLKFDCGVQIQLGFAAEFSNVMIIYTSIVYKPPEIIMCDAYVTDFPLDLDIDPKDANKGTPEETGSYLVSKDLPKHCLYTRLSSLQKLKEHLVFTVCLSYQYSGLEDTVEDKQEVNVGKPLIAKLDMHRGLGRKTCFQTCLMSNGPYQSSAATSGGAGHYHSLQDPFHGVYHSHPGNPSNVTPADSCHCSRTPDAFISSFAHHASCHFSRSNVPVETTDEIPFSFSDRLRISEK
- assay_overview: biochemical
pIC50: −log10 of the molar value.
Lab note: anything with pIC50 at or over 7 counts as true (1); the rest go in false (0).

CN(C(=O)C1CCS(=O)(=O)CC1)[C@@H](c1ccc(NC2Cc3ccc(Cl)c(C(F)(F)F)c3C2)cn1)C(F)(F)F (single isomer, unassigned) [Example 311] = false (0)
CN1CCC(C(=O)N(C)[C@@H](c2ccc(NC3Cc4ccccc4C3(C)C)nc2)C(F)(F)F)CC1 (single isomer, unassigned) [Example 145] = false (0)
CN(C(=O)N1CCS(=O)(=O)CC1)[C@@H](c1ccc(NC2Cc3ccccc3C2(C)C)cc1)C(F)(F)F (single isomer, unassigned) [Example 15] = false (0)

Quick check, pIC50 >= 7? CN(C(=O)C1CN(S(C)(=O)=O)C1)[C@@H](c1ccc(NC2Cc3ccccc3C2(C)C)cn1)C(F)(F)F (single isomer, unassigned) [Example 209]
true (1)

State whether the measured pIC50 reaches 7, counting equality as reaching it, for CN(C(=O)C1COCC(=O)N1)[C@@H](c1ccc(NC2Cc3ccccc3C2(C)C)cn1)C(F)(F)F (single isomer, unassigned) [Example 163]
false (0)

Could you tell me if the measured pIC50 of CN(C(=O)C1CCC(=O)NC1)[C@@H](c1ccc(NC2Cc3ccccc3C2(C)C)cn1)C(F)(F)F (single isomer, unassigned) [Example 105] reaches 7 or more?
true (1)

Item COCC(=O)N(C)[C@@H](c1ccc(NC2Cc3ccccc3C2(C)C)cc1)C(F)(F)F (single isomer, unassigned) [Example 29] with pIC50 of 7 or above?
true (1)

Does COCc1c(Cl)ccc2c1CC(Nc1ccc([C@H](N(C)C(=O)C3CCS(=O)(=O)CC3)C(F)(F)F)nc1)C2 (stereo partly shown) have a reported pIC50 of at least 7?
false (0)

Is reported pIC50 greater than or equal to 7 here: CN(C(=O)C1CCS(=O)(=O)C1)[C@@H](c1ccc(NC2Cc3ccc(Cl)c(Cl)c3C2)cn1)C(F)(F)F (single isomer, unassigned) [Example 360]
true (1)
